TGT: Piezo1 (human cardiac fibroblasts, endogenous) (Homo sapiens, UniProt Q92508)
Construct: endogenous full-length channel in cultured human atrial cardiac fibroblasts; Yoda1 response reduced by Piezo1 siRNA
Sequence (Q92508 whole entry): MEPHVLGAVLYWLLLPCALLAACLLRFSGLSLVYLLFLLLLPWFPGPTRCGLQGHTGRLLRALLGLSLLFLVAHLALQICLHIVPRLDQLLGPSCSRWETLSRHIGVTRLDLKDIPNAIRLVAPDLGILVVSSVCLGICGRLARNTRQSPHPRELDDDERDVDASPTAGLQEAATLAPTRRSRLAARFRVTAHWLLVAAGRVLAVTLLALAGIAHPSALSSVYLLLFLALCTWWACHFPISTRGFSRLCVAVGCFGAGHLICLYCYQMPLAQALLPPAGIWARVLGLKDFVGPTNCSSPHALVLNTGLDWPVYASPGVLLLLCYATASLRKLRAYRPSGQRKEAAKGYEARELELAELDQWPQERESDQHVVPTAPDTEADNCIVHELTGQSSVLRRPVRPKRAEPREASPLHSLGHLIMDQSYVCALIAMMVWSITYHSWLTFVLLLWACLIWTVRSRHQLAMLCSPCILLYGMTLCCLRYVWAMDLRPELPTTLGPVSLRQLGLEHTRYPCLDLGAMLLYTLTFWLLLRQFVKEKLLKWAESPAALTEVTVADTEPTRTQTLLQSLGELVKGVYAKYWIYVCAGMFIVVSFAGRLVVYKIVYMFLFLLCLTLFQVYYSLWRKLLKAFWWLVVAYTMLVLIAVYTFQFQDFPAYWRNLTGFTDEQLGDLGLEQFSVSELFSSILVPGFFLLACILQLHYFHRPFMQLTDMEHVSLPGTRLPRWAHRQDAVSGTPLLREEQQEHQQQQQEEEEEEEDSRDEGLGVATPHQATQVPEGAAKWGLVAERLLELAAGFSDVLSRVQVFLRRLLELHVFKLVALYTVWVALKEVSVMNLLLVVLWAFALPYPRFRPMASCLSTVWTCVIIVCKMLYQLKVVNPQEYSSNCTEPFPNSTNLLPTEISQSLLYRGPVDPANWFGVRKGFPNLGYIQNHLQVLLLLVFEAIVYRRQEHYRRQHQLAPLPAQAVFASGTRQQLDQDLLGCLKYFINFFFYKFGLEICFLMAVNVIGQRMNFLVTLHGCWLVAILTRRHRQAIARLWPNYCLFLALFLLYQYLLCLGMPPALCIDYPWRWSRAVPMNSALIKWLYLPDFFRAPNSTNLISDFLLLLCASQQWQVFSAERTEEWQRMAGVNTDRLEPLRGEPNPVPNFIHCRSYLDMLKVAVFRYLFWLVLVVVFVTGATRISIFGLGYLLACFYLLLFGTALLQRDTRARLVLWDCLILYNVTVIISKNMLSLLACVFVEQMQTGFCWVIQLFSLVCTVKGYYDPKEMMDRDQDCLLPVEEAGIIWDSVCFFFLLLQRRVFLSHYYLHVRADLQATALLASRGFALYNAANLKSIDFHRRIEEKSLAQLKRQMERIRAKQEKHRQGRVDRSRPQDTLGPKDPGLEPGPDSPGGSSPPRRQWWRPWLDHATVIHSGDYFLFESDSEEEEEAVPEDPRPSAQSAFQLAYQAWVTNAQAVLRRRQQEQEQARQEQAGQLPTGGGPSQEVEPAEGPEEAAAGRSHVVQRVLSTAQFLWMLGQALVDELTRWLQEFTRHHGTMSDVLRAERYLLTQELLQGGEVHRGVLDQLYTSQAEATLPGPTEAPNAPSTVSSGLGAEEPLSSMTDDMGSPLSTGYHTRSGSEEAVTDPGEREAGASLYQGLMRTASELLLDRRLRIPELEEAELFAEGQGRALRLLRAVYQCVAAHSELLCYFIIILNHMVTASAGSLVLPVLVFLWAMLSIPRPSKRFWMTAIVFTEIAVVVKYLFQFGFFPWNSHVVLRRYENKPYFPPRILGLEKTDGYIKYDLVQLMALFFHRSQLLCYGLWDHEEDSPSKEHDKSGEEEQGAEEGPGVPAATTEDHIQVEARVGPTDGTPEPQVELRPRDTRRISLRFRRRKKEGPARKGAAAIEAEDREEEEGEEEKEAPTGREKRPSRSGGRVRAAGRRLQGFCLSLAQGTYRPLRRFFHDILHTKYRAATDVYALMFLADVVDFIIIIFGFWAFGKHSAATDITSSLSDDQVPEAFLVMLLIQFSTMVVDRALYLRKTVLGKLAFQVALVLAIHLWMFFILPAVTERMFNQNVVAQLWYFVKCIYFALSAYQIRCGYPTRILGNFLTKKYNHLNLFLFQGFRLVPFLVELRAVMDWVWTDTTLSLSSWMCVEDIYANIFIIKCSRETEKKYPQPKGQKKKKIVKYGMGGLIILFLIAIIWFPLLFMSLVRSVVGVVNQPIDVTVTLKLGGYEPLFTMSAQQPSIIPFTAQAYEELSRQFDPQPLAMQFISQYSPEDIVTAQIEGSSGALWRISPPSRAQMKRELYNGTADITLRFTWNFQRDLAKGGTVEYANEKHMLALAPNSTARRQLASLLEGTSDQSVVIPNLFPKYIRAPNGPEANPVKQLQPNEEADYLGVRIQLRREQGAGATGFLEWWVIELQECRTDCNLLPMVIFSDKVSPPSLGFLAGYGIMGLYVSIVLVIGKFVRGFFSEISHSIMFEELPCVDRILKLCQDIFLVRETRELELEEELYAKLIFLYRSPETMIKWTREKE
ASSAY_COMMENT: Fura-2 intracellular Ca2+ assay, 96-well plate reader
CONDITION_DESCRIPTION: activator (agonist); native human cardiac fibroblasts; 2.5 mM probenecid, 1.5 mM CaCl2, pH 7.4; estimate, Yoda1 limited to 10 μM by solubility
MEASURED_ENDPOINT: EC50 (µM)
One number for each entry, in µM.

Query: Look up EC50 for this molecule: Clc1cccc(Cl)c1CSc1nnc(-c2cnccn2)s1
Reply: 0.71
